readout.type: melting point

Some solved cases for reference:
>  <molecule>
C[C@@H]1CN(C(=O)c2ccc(-n3ncnc3[C@H](C)NC(=O)Nc3cc(C(F)(F)F)c(Cl)cc3Cl)nc2)C[C@H](C)O1

>  <melting point>
138 to 140 °C

$$$$
>  <molecule>
C[C@H](NC(=S)Nc1cc(Cl)cc(C(F)(F)F)c1)c1ncnn1-c1ncccn1

>  <melting point>
106 to 108 °C

$$$$
>  <molecule>
CC(NC(=O)Nc1cc(C(F)(F)F)cc(C(F)(F)F)c1)c1ncnn1-c1ncccn1 (stereo not shown)

>  <melting point>
124 to 127 °C

$$$$

Which melting point value is on record for C[C@H](NC(=O)Nc1ccc(Br)c(Br)c1)c1nccnc1-c1ncccn1 ?
220 to 222 °C

Which melting point value is on record for C[C@H](NC(=O)Nc1cnc(C(F)(F)F)cc1I)c1ncnn1-c1ncccn1 ?
183 to 186 °C

Which melting point value is on record for C[C@@H](c1ncnn1-c1ncccn1)N1CCN(c2cc(OC(F)(F)C(F)F)c(Cl)cc2Cl)C1=O ?
207 to 209 °C

Which melting point value is on record for C[C@H](NC(=O)Nc1cc(Cl)c(Cl)cc1I)c1ncnn1-c1ncccn1 (stereo in doubt) ?
236 to 249 °C
